Origin of the recorded values: paper PMC6837341

Target: quinol cytochrome c reductase (CIII) (Apis mellifera)
Sequence (P34845 whole entry): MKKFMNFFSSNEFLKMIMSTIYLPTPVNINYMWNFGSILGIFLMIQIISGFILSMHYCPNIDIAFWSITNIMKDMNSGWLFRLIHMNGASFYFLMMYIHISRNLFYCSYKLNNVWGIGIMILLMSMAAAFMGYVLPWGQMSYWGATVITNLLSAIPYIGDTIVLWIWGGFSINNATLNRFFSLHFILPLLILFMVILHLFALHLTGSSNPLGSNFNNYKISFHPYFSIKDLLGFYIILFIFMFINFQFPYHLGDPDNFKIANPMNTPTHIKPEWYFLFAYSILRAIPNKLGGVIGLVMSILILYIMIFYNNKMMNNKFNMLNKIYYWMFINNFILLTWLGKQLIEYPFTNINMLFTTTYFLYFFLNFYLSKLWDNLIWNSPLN
Test: QCCR activity, honeybee crude mitochondria
Type: biochemical
Settings: read-out: IC50 QCCR, CIII values only indicative
pIC50: −log10 of the molar value.
OBSERVED_PROPERTY: pIC50

Reported pIC50 for CC(C)CC(C)c1sccc1NC(=O)c1cn(C)nc1C(F)(F)F (stereo not drawn) was 3.57

Short answer for O=C(Nc1ccccc1-c1ccc(Cl)cc1)c1cccnc1Cl : pIC50 was < 3.30

Recorded pIC50 (molecule CC(C)Oc1cccc(NC(=O)c2ccccc2C(F)(F)F)c1 ): < 3.30

###

Molecular target: glycerol-3-phosphate cytochrome c reductase (G3PDH+CIII) (Homo sapiens, UniProt P00156)
Construct: the pellets were permeabilized by two freeze-thaw cycles before enzyme assays; endogenous in cells; host or cells: HEK293, freeze-thawed cell pellets
Test: Glycerol-3-phosphate cytochrome c reductase (GCCR) activity, freeze-thawed HEK cells
Type: biochemical
Settings: Homo sapiens, freeze-thawed HEK cells; read-out: IC50 GCCR
OBSERVED_PROPERTY: IC50 (µM)
Report only the number, with the unit µM understood.

Reported IC50 for Cn1cc(C(=O)Nc2ccc(F)cc2-c2ccc(Cl)c(Cl)c2)c(C(F)F)n1 [Bixafen, bixafen] was 21.1

Entry CC(C)C1C2CCC1c1c(NC(=O)c3cn(C)nc3C(F)F)cccc12 (centres unmarked) [Isopyrazam, isopyrazam] ; IC50 = 51.3

###

Target: UniProt:Q18ND9
Test: QCCR activity, Botrytis cinerea mitochondria
Type: biochemical
Conditions: read-out: IC50 QCCR, CIII values only indicative
pIC50: −log10 of the molar value.
I'd appreciate it if you could supply pIC50 values for the items below.

For this compound ( CC(C)CC(C)c1sccc1NC(=O)c1cn(C)nc1C(F)(F)F (stereo not drawn) ), measured pIC50 is 3.98

Memo: O=C(Nc1ccccc1-c1ccc(Cl)cc1)c1cccnc1Cl , reported pIC50: < 3.30

pIC50 in this record for CC(C)Oc1cccc(NC(=O)c2ccccc2C(F)(F)F)c1 : < 3.30

###

Biological target: succinate cytochrome c reductase (SDH+CIII)
Test: SCCR activity, earthworm homogenate
Settings: Lumbricus terrestris homogenate
OBSERVED_PROPERTY: IC50 (µM)
Only the number, expressed in µM, is required.

Sample CC(C)CC(C)c1sccc1NC(=O)c1cn(C)nc1C(F)(F)F (stereo not shown) ; IC50 observed: 0.7

Lab book: IC50 of Cc1nn(C)c(F)c1C(=O)Nc1ccccc1C(C)CC(C)C (stereo not shown) noted as 1.13

Kindly note the recorded IC50 for Cn1cc(C(=O)Nc2ccc(F)cc2-c2ccc(Cl)c(Cl)c2)c(C(F)F)n1 , which is 6

Entry O=C(Nc1ccccc1-c1ccc(Cl)cc1)c1cccnc1Cl , IC50 reported as 0.5

Data point: Cn1cc(C(=O)Nc2ccccc2-c2cc(F)c(F)c(F)c2)c(C(F)F)n1 ; IC50 = 0.71

Sure, the documented IC50 for CC(C)C1C2CCC1c1c(NC(=O)c3cn(C)nc3C(F)F)cccc12 (stereo not shown) is 0.46

Entry CC(C)Oc1cccc(NC(=O)c2ccccc2C(F)(F)F)c1 — recorded IC50 = 0.36

###

Molecular target: glycerol-3-phosphate cytochrome c reductase (G3PDH+CIII) (Homo sapiens, UniProt P00156)
Construct: the pellets were permeabilized by two freeze-thaw cycles before enzyme assays; endogenous in cells; host or cells: HEK293, freeze-thawed cell pellets
Assay: Glycerol-3-phosphate cytochrome c reductase (GCCR) activity, freeze-thawed HEK cells
Type: biochemical
Provide the recorded IC50 for the entries that follow.

In plain terms, O=C(Nc1ccccc1-c1ccc(Cl)cc1)c1cccnc1Cl has a documented IC50 of > 500 µM

O=C(NCCc1ncc(C(F)(F)F)cc1Cl)c1ccccc1C(F)(F)F has a reported IC50 of > 500 µM

Item: CC(C)CC(C)c1sccc1NC(=O)c1cn(C)nc1C(F)(F)F (stereo not drawn) | IC50: 211 µM

###

Molecular target: glycerol-3-phosphate cytochrome c reductase (G3PDH+CIII) (Lumbricus terrestris)
Assay: GCCR activity, earthworm homogenate
I'd be grateful if you could share measured IC50 for these entries.
Numeric answer only, unit µM assumed.

GET /values?item= Cn1cc(C(=O)Nc2ccc(F)cc2-c2ccc(Cl)c(Cl)c2)c(C(F)F)n1 &system= glycerol-3-phosphate cytochrome c reductase (G3PDH+CIII) (Lumbricus terrestris) returns IC50: 450

Assay glycerol-3-phosphate cytochrome c reductase (G3PDH+CIII) (Lumbricus terrestris), sample CC(C)C1C2CCC1c1c(NC(=O)c3cn(C)nc3C(F)F)cccc12 (stereo not shown) , IC50 read: 83

###

Target: quinol cytochrome c reductase (CIII) (Homo sapiens, UniProt P00156)
Construct: the pellets were permeabilized by two freeze-thaw cycles before enzyme assays; endogenous in cells; host or cells: HEK293, freeze-thawed cell pellets
Assay: Antimycin-sensitive quinol cytochrome c reductase (QCCR) activity, freeze-thawed HEK cells
Type: biochemical
Settings: Homo sapiens, freeze-thawed HEK cells; CIII values only indicative (reduced quinone added); read-out: IC50 QCCR
OBSERVED_PROPERTY: IC50 (µM)
# value in µM; strip the unit string

Lab note: measured IC50 of CC(C)C1C2CCC1c1c(NC(=O)c3cn(C)nc3C(F)F)cccc12 (centres unmarked) was 125

GET /value?item= Cn1cc(C(=O)Nc2ccc(F)cc2-c2ccc(Cl)c(Cl)c2)c(C(F)F)n1 &field=IC50 returns 15.5

###

Consider the following compounds; for each one, report its pIC50.
Biological target: quinol cytochrome c reductase (CIII) (Homo sapiens)
Construct: the pellets were permeabilized by two freeze-thaw cycles before enzyme assays; endogenous in cells; host or cells: HEK293, freeze-thawed cell pellets
Assay: Antimycin-sensitive quinol cytochrome c reductase (QCCR) activity, freeze-thawed HEK cells
Format: biochemical
pIC50: −log10 of the molar value.

Tested system quinol cytochrome c reductase (CIII) (Homo sapiens); pIC50 recorded for CC(C)CC(C)c1sccc1NC(=O)c1cn(C)nc1C(F)(F)F (stereo not drawn) was 3.46

pIC50 on quinol cytochrome c reductase (CIII) (Homo sapiens) for O=C(NCCc1ncc(C(F)(F)F)cc1Cl)c1ccccc1C(F)(F)F is < 3.30

The compound O=C(Nc1ccccc1-c1ccc(Cl)cc1)c1cccnc1Cl on quinol cytochrome c reductase (CIII) (Homo sapiens): pIC50 was < 3.30

###

Molecular target: quinol cytochrome c reductase (CIII) (Botrytis cinerea)
Sequence (Q18ND9 1-391): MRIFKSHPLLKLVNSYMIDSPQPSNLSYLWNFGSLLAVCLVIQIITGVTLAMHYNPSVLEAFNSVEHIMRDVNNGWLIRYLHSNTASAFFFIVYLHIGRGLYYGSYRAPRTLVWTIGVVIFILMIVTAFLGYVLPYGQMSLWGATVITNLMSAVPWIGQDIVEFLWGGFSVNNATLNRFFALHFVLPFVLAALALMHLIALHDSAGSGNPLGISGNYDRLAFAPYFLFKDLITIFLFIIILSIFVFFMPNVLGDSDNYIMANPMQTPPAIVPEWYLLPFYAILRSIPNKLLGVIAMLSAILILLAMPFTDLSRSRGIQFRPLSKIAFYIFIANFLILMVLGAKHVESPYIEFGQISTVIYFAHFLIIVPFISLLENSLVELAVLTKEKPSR
Experiment: QCCR activity, Botrytis cinerea mitochondria
Format: biochemical
Conditions: CIII values only indicative, read-out: IC50 QCCR
OBSERVED_PROPERTY: pIC50
Schema: pIC50 number; meaning minus log10 of the concentration expressed in molar units.

Form field pIC50, entry CC(C)C1C2CCC1c1c(NC(=O)c3cn(C)nc3C(F)F)cccc12 (stereo not shown) : 4.85

// Cc1nn(C)c(F)c1C(=O)Nc1ccccc1C(C)CC(C)C (stereo not shown) : pIC50 value = 3.36

// pIC50 lookup, compound = Cn1cc(C(=O)Nc2ccccc2-c2cc(F)c(F)c(F)c2)c(C(F)F)n1 , result: 4.17

Kindly note the recorded pIC50 for Cn1cc(C(=O)Nc2ccc(F)cc2-c2ccc(Cl)c(Cl)c2)c(C(F)F)n1 , which is 4.65

###

Answer each item with its documented IC50.
Target: UniProtKB Q34945
Sequence (Q34945 1-379): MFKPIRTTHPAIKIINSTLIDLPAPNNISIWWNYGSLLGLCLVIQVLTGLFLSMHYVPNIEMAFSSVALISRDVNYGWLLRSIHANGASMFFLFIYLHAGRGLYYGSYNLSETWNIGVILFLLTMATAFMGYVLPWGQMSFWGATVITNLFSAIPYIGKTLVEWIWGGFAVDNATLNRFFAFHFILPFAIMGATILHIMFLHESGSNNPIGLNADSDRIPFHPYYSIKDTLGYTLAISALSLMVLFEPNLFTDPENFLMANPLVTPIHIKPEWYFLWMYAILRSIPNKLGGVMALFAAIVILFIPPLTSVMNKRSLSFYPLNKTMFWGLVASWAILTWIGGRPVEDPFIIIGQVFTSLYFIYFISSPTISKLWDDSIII
Assay: QCCR activity, earthworm homogenate
Format: biochemical
Settings: CIII values only indicative, read-out: IC50 QCCR

The compound Cn1cc(C(=O)Nc2ccccc2-c2cc(F)c(F)c(F)c2)c(C(F)F)n1 [Fluxapyroxad, fluxapyroxad] showed IC50 equal to > 500 µM

Recorded IC50 (compound CC(C)C1C2CCC1c1c(NC(=O)c3cn(C)nc3C(F)F)cccc12 (stereo not shown) [Isopyrazam, isopyrazam] ): 76 µM

compound Cc1nn(C)c(F)c1C(=O)Nc1ccccc1C(C)CC(C)C (stereo not shown) [Penflufen, penflufen] , IC50 observed: > 500 µM

Cn1cc(C(=O)Nc2ccc(F)cc2-c2ccc(Cl)c(Cl)c2)c(C(F)F)n1 [Bixafen, bixafen] yielded IC50 of ≥ 500 µM

###

Target: glycerol-3-phosphate cytochrome c reductase (G3PDH+CIII) (Apis mellifera, UniProt P34845)
Experiment: GCCR activity, honeybee crude mitochondria
OBSERVED_PROPERTY: IC50 (µM)
Could you give me the number in µM? Just the number is fine.

Noted for Cn1cc(C(=O)Nc2ccccc2-c2cc(F)c(F)c(F)c2)c(C(F)F)n1 : its IC50 reads 205

Entry Cn1cc(C(=O)Nc2ccc(F)cc2-c2ccc(Cl)c(Cl)c2)c(C(F)F)n1 ; IC50 = 24.1

Form field IC50, entry CC(C)C1C2CCC1c1c(NC(=O)c3cn(C)nc3C(F)F)cccc12 (stereo not shown) : 97
